Measured values drawn from paper PMC9695823 for this set.

Reported IC50 at 24 h values for the following compounds.
Experiment: MTT cytotoxicity assay against normal cell line NIH/3T3
Format: cell-based
Settings: mouse, NIH/3T3 normal cells, 24 h treatment, 0-500 μM, mean ± SD
Use µM as the unit, but write only the number.

compound	IC50 at 24 h / µM
CC(=O)Oc1cc(O)cc2c1Oc1c(Oc3cc(O)c(Oc4cc(O)c5c(c4)Oc4c(O)cc(O)c(Oc6cc(O)cc(O)c6)c4O5)c(O)c3)c(O)cc(O)c1O2 [compound 2, 6-O-acetyl dieckol]	481

Next compound, IC50 at 24 h to be filled in.
Name the recorded IC50 at 24 h of the item OCCCOc1cc(O)cc2c1Oc1c(Oc3cc(O)c(Oc4cc(O)c5c(c4)Oc4c(O)cc(O)c(Oc6cc(O)cc(O)c6)c4O5)c(O)c3)c(O)cc(O)c1O2 [compound 10] in your answer.
563
